# Tested on: HT29 colon
# methodDescription: NCI tumour cell line growth inhibition, 48 h
In this section, each of the compounds is paired with its reported TGI.

compound=Cc1ccc2c(c1)Nc1ccccc1P2(=O)O assayendpoint=TGI measvalue="> 100 µM"
compound=C=CCCC(=O)CC(=O)OCc1ccccc1 assayendpoint=TGI measvalue="> 100 µM"
compound=O=C(CCc1cc(-c2ccc(F)cc2)n[nH]1)N(Cc1ccccc1)Cc1ccccc1 assayendpoint=TGI measvalue="> 100 µM"

# evaluate next
Value lookup for TGI; key = "O=C1C(OC(=O)c2ccccc2)=C(c2ccc(O)cc2)C(=O)C(OC(=O)c2ccccc2)=C1c1ccc(O)cc1"
> 100 µM

Data credit: PubChem BioAssay (NCI)
